tested on: Monochoria vaginalis; assay: Test Example 12: herbicidal effect test by treatment during growing period in paddy field; assay type: in vivo; details: 120 g/10a; treatment seven days after sowing in flooded paddy pot; assessed 14 days after treatment
experimentalEndpoint: Weed suppression rate (%) Monochoria vaginalis

>>> print(df.to_string())
                                    molecule  u  observed
 0  CN(C(=O)n1cnn(S(C)(=O)=O)c1=O)c1ccc(F)cc1F [Compound 11-1125]  %        60
 1  CC(C)N(C(=O)n1cnn(S(=O)(=O)c2ccc(C(C)(C)C)cc2)c1=O)c1ccccc1F [Compound 11-672]  %        80
 2  CC(C)N(C(=O)n1cnn(S(=O)(=O)c2c(F)cccc2F)c1=O)c1cccc(F)c1F [Compound 11-772]  %        90
 3  Cc1ccc(S(=O)(=O)n2ncn(C(=O)N(c3ccc(C)cc3F)C(C)C)c2=O)cc1 [Compound 11-651]  %        80
 4  Cc1ccc(N(C(=O)n2cnn(S(=O)(=O)c3ccc(C(C)(C)C)cc3)c2=O)C(C)C)c(F)c1 [Compound 11-696]  %        80
 5  CC(C)N(C(=O)n1cnn(S(=O)(=O)c2cccc(F)c2)c1=O)c1cccc(F)c1F [Compound 11-437]  %       100
 6  CC(C)N(C(=O)n1cnn(S(=O)(=O)N(C)C)c1=O)c1ccc(C(F)(F)F)cc1Cl [Compound 11-1084]  %        80
 7  CC(C)N(C(=O)n1cnn(S(=O)(=O)N(C)C)c1=O)c1ccc(F)cc1 [Compound 11-1056]  %        80
 8  CC(C)N(C(=O)n1cnn(S(=O)(=O)C2CCCCC2)c1=O)c1ccc(F)cc1F [Compound 11-294]  %        90
 9  CC(C)N(C(=O)n1cnn(S(=O)(=O)c2ccc(F)cc2)c1=O)c1cccc(F)c1F [Compound 11-474]  %        90
10  CC(C)N(C(=O)n1cnn(S(=O)(=O)c2ccccc2Cl)c1=O)c1cccc(F)c1F [Compound 11-511]  %       100
11  CC(C)N(C(=O)n1cnn(S(=O)(=O)C2CCOCC2)c1=O)c1ccc(F)cc1F [Compound 11-1109]  %        80
12  CC(C)N(C(=O)n1cnn(S(=O)(=O)c2cccc(Cl)c2)c1=O)c1c(F)cc(F)cc1F [Compound 11-554]  %        80
13  CC(C)N(C(=O)n1cnn(S(C)(=O)=O)c1=O)c1ccc(Cl)cc1F [Compound 11-20]  %        60
14  CC(C)N(C(=O)n1cnn(S(=O)(=O)C2CCCCC2)c1=O)c1ccc(C(F)(F)F)cc1Cl [Compound 11-314]  %        80
15  CC(C)N(C(=O)n1cnn(S(=O)(=O)c2cccs2)c1=O)c1ccc(Br)cc1Cl [Compound 11-1033]  %       100
16  CC(C)N(C(=O)n1cnn(S(C)(=O)=O)c1=O)c1ccc(F)cc1F [Compound 11-12]  %        90
17  CC(C)N(C(=O)n1cnn(S(=O)(=O)C2CC2)c1=O)c1ccc(Cl)cc1F [Compound 11-206]  %        90
18  CC(C)N(C(=O)n1cnn(S(=O)(=O)c2ccc(C(C)(C)C)cc2)c1=O)c1ccc(F)cc1Cl [Compound 11-689]  %        80
19  CN(C(=O)n1cnn(S(=O)(=O)C2CC2)c1=O)c1ccc(F)cc1F [Compound 11-140]  %        70
20  COc1ccc(S(=O)(=O)n2ncn(C(=O)N(c3ccc(F)c(F)c3F)C(C)C)c2=O)cc1 [Compound 11-1153]  %       100
21  CC(C)N(C(=O)n1cnn(S(=O)(=O)c2ccccc2)c1=O)c1ccc(F)cc1F [Compound 11-367]  %        90
22  CC(C)N(C(=O)n1cnn(S(=O)(=O)c2ccc(Cl)cc2)c1=O)c1c(F)cc(F)cc1F [Compound 11-592]  %       100
23  Cc1cc(C)c(S(=O)(=O)n2ncn(C(=O)N(c3c(F)cc(F)cc3F)C(C)C)c2=O)c(C)c1 [Compound 11-867]  %        80
24  CC(C)N(C(=O)n1cnn(S(=O)(=O)c2ccc(F)cc2)c1=O)c1ccccc1 [Compound 11-464]  %        80
25  CC(C)N(C(=O)n1cnn(S(=O)(=O)C(C)C)c1=O)c1ccc(Cl)cn1 [Compound 11-85]  %        90
26  CC(C)N(C(=O)n1cnn(S(=O)(=O)C2CC2)c1=O)c1ccc(F)cc1F [Compound 11-142]  %        90
27  CC(C)N(C(=O)n1cnn(S(=O)(=O)C2CCCCC2)c1=O)c1ccccc1 [Compound 11-283]  %        90
28  CCS(=O)(=O)n1ncn(C(=O)N(c2ccc(F)c(F)c2F)C(C)C)c1=O [Compound 11-1152]  %       100
29  Cc1cc(Cl)ccc1N(C(=O)n1cnn(S(=O)(=O)C2CC2)c1=O)C(C)C [Compound 11-213]  %        80
30  CC(C)N(C(=O)n1cnn(S(=O)(=O)C2CCCCC2)c1=O)c1ccc(C#N)cc1Cl [Compound 11-316]  %        80
